molecular target: UniProt P07858; experiment: CTSB inhibitor potency, confirmatory, biochemical, dose-response (AID 820); conditions: purified cathepsin B enzyme activity, signal read-out
Records with an inconclusive call do not appear. The source made the active and inactive calls. No rule for the calls is given here.
Give one outcome, nothing more. List: yes for active, no for inactive

These recorded examples may help you get a feel for the data.
{"columns": ["COMPOUND", "CAT"],
 "data": [
  ["O=C(Oc1oc(-c2ccco2)nc1C=Nc1ccccc1)c1ccco1", "yes"],
  ["COc1cccc(Cn2c(-c3nonc3N)nc3ccccc32)c1", "yes"],
  ["COc1nc(N(C#N)CC(N)=O)nc(N2CCCC2)n1", "yes"],
  ["CCN(C(=O)COc1cc(=O)n(C)c2ccccc12)c1cccc(Cl)c1", "no"],
  ["COc1ccc(C(=O)C(OC(=O)CNC(=O)c2ccco2)c2ccccc2)cc1 (stereo not given)", "yes"]
]}

Next, consider the following compound.
Data request: Recorded test call requested for COc1cc2c(cc1OC)-c1c(OC)c(OC)cc3c1C(C2)N(C)CC3 (stereo not given)
Data returned: no

---

target: Cathepsin B (Homo sapiens) (UniProt P07858); assay: CTSB inhibitor potency, confirmatory, biochemical, dose-response (AID 820); conditions: purified cathepsin B enzyme activity, signal read-out
Inconclusive results are not listed. Active and inactive are the calls of the source. No rule for the calls is given here.
Select the matching outcome among active, inactive

Examples with answers:
{"columns": ["COMPOUND", "TARGET OF ASSAY", "CAT"],
 "data": [
  ["CC1=C(C)CS(=O)N(S(=O)(=O)c2ccc(Cl)cc2)C1 (centres undefined)", "Cathepsin B (Homo sapiens) (UniProt P07858)", "active"],
  ["CCn1nc(-c2ccccc2)nc2c(=O)n(C)c(=O)nc1-2", "Cathepsin B (Homo sapiens) (UniProt P07858)", "active"],
  ["Nc1nonc1-c1noc(N2CCCCC2)n1", "Cathepsin B (Homo sapiens) (UniProt P07858)", "inactive"]
]}

Consider now this further compound.
Data request: Please state the recorded outcome for this compound: `COc1ccc(S(=O)(=O)n2nc(OC(=O)c3ccccc3)cc2N)cc1`
Data returned: active
